TARGET_ENTITY: Neuronal acetylcholine receptor subunit alpha-7 (Rattus norvegicus) (UniProt Q05941)
RECORDED_CONDITIONS: Brain, Membrane
Description: Displacement of [125I]-alpha-bungarotoxin from alpha7 nAChR in rat brain membrane after 3 hrs
Parameter class (string): assigned from measured Ki. Ranges: lower (below 0.3 µM), middle (0.3 µM to below 0.7 µM), upper (0.7 µM or more)

>>> category_label("CC(C)(C)Oc1ccc(/C=C2\\CCCN=C2c2cccnc2)cc1")
"middle"
>>> category_label("Cc1cc(C)c(/C=C2\\CCCN=C2c2cccnc2)c(C)c1")
"lower"
>>> category_label("CNc1ccc(/C=C2\\CCCN=C2c2cccnc2)cc1")
"upper"
>>> category_label("OCCN(CCO)c1ccc(/C=C2\\CCCN=C2c2cccnc2)cc1")
"upper"
>>> category_label("CSc1ccc(/C=C2\\CCCN=C2c2cccnc2)cc1")
"middle"
>>> category_label("C(=C1/CCCN=C1c1cccnc1)/c1cc2ccccc2o1")
"upper"
>>> category_label("COc1ccc(/C=C2\\CCCN=C2c2cccnc2)c(OC(C)=O)c1")
"middle"
>>> category_label("Oc1cccc(/C=C2\\CCCN=C2c2cccnc2)c1")
"upper"
>>> category_label("N#Cc1ccc(/C=C2\\CCCN=C2c2cccnc2)cc1")
"middle"
>>> category_label("COc1ccc(/C=C2\\CCCN=C2c2cccnc2)cc1")
"lower"
>>> category_label("COc1cccc(/C=C2\\CCCN=C2c2cccnc2)c1")
"middle"

###

Record: pKi reported on Neuronal acetylcholine receptor subunit alpha-7 (Rattus norvegicus).
Sequence (Q05941 whole entry): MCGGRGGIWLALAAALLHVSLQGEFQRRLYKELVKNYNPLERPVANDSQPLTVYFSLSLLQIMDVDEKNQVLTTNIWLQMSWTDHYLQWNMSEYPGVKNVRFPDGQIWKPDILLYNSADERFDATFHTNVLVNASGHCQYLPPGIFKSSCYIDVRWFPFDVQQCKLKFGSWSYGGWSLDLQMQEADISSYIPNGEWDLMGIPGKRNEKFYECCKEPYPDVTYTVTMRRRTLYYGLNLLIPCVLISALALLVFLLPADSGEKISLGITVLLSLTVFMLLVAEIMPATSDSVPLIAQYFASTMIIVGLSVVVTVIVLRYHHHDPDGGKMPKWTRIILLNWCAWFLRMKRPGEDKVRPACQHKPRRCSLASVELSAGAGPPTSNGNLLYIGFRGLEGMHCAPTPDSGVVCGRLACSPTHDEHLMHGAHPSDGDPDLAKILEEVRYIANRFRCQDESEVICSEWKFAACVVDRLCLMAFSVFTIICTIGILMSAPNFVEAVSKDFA
pKi: −log10 of the molar value.
VALUE_TYPE: pKi

>>> number("Oc1cccc(/C=C2\\CCCN=C2c2cccnc2)c1")
6.82
>>> number("COc1ccc(/C=C2\\CCCN=C2c2cccnc2)c(OC(C)C)c1")
7.15
>>> number("COc1ccc(/C=C2\\CCCN=C2c2cccnc2)c(OC(C)=O)c1")
6.52
>>> number("CCC(CC)Oc1cc(OC)ccc1/C=C1\\CCCN=C1c1cccnc1")
7.30

###

List of Ki values.
TARGET_ENTITY: Neuronal acetylcholine receptor subunit alpha-7 (Rattus norvegicus) (UniProt Q05941)
RECORDED_CONDITIONS: Brain, Membrane
VALUE_TYPE: Ki (nM)

>>> number("COc1ccc2cc(/C=C3\\CCCN=C3c3cccnc3)ccc2c1")
432
>>> number("CC(=O)Nc1ccc(/C=C2\\CCCN=C2c2cccnc2)cc1")
620
>>> number("Oc1ccc(/C=C2\\CCCN=C2c2cccnc2)cc1")
444
>>> number("CCCc1ccc(/C=C2\\CCCN=C2c2cccnc2)cc1")
553
>>> number("CN(C)c1ccc(/C=C2\\CCCN=C2c2cccnc2)cc1")
1100
>>> number("CC(C)(C)C(=O)Oc1ccc(/C=C2\\CCCN=C2c2cccnc2)cc1")
161
>>> number("Oc1ccc(/C=C2\\CCCN=C2c2cccnc2)c(O)c1")
699
>>> number("Clc1ccc(/C=C2\\CCCN=C2c2cccnc2)cc1")
49
>>> number("CC(=O)Oc1ccccc1/C=C1\\CCCN=C1c1cccnc1")
244

###

TARGET_ENTITY: Neuronal acetylcholine receptor subunit alpha-7 (Rattus norvegicus) (UniProt Q05941)
RECORDED_CONDITIONS: Brain, Membrane
VALUE_TYPE: Ki (µM)

>>> number("COc1ccc(/C=C2\\CCCN=C2c2cccnc2)c(OC(C)C)c1")
1.16
>>> number("FC(F)Oc1ccc(/C=C2\\CCCN=C2c2cccnc2)cc1")
0.004
>>> number("COc1ccc(/C=C2\\CCCN=C2c2cccnc2)c(O)c1")
0.495
>>> number("CCN(CC)c1ccc(/C=C2\\CCCN=C2c2cccnc2)c(O)c1")
1.3
>>> number("Nc1ccc(/C=C2\\CCCN=C2c2cccnc2)cc1")
1.3
>>> number("CCC(CC)Oc1cc(OC)ccc1/C=C1\\CCCN=C1c1cccnc1")
1.3
>>> number("CC(C)(C)C(=O)Oc1ccccc1/C=C1\\CCCN=C1c1cccnc1")
0.187
>>> number("COc1cc(/C=C2\\CCCN=C2c2cccnc2)cc(OC)c1OC")
0.542
>>> number("COc1cc(OC)c(/C=C2\\CCCN=C2c2cccnc2)c(OC)c1")
0.745
>>> number("CC(=O)Oc1ccc(/C=C2\\CCCN=C2c2cccnc2)cc1")
0.77
>>> number("Cc1cc(/C=C2\\CCCN=C2c2cccnc2)cc(C)c1O")
0.276
>>> number("Cc1cc(O)cc(C)c1/C=C1\\CCCN=C1c1cccnc1")
0.74

###

TARGET_ENTITY: Neuronal acetylcholine receptor; alpha4/beta2 (Rattus norvegicus) (UniProt P09483+P12390)
EXPERIMENT_NOTES: Displacement of [3H]cytisine from alpha4beta2 nAChR in rat brain membrane after 3 hrs
Assay type: cell membranes
Records here are stratified by Ki; strata: low bin (below 0.1 µM), mid bin (0.1 µM to below 0.3 µM), high bin (0.3 µM or more)

>>> category_label("Cc1cc(/C=C2\\CCCN=C2c2cccnc2)cc(C)c1O")
"high bin"
>>> category_label("COc1ccc(/C=C2\\CCCN=C2c2cccnc2)c(OC)c1 [GTS-21]")
"high bin"
>>> category_label("Oc1ccc(/C=C2\\CCCN=C2c2cccnc2)c(O)c1")
"high bin"
>>> category_label("Oc1cccc(/C=C2\\CCCN=C2c2cccnc2)c1")
"low bin"
>>> category_label("CCCc1ccc(/C=C2\\CCCN=C2c2cccnc2)cc1")
"low bin"
>>> category_label("CC(=O)Oc1ccccc1/C=C1\\CCCN=C1c1cccnc1")
"mid bin"
>>> category_label("C(=C1/CCCN=C1c1cccnc1)/c1ccccc1 [3-BENZYLIDENEANABASEINE]")
"low bin"
>>> category_label("CC(C)(C)C(=O)Oc1ccc(/C=C2\\CCCN=C2c2cccnc2)cc1")
"low bin"
>>> category_label("CC(C)(C)C(=O)Oc1ccccc1/C=C1\\CCCN=C1c1cccnc1")
"mid bin"
>>> category_label("CCC(CC)Oc1cc(OC)ccc1/C=C1\\CCCN=C1c1cccnc1")
"high bin"
>>> category_label("COc1ccc(/C=C2\\CCCN=C2c2cccnc2)c(OC(C)C)c1")
"high bin"
>>> category_label("N#Cc1ccc(/C=C2\\CCCN=C2c2cccnc2)cc1")
"low bin"
>>> category_label("C(=C1/CCCN=C1c1cccnc1)/c1ccc2c(c1)OCCO2")
"mid bin"
>>> category_label("Clc1ccc(/C=C2\\CCCN=C2c2cccnc2)cc1")
"low bin"
>>> category_label("Nc1ccc(/C=C2\\CCCN=C2c2cccnc2)cc1")
"high bin"
>>> category_label("Cc1cc(O)cc(C)c1/C=C1\\CCCN=C1c1cccnc1")
"mid bin"
>>> category_label("Cc1ccc(/C=C2\\CCCN=C2c2cccnc2)cc1")
"low bin"
>>> category_label("FC(F)(F)Oc1ccccc1/C=C1\\CCCN=C1c1cccnc1")
"mid bin"
>>> category_label("Cc1cc(C)c(/C=C2\\CCCN=C2c2cccnc2)c(C)c1")
"mid bin"
>>> category_label("COc1ccc(/C=C2\\CCCN=C2c2cccnc2)cc1")
"high bin"
>>> category_label("C(=C1/CCCN=C1c1cccnc1)/c1ccc(N2CCOCC2)cc1")
"high bin"
>>> category_label("COc1cc(/C=C2\\CCCN=C2c2cccnc2)cc(OC)c1OC")
"high bin"
>>> category_label("CC(C)(C)Oc1ccc(/C=C2\\CCCN=C2c2cccnc2)cc1")
"high bin"
>>> category_label("CSc1ccc(/C=C2\\CCCN=C2c2cccnc2)cc1")
"low bin"
>>> category_label("COc1ccc(/C=C2\\CCCN=C2c2cccnc2)c(OC(C)=O)c1")
"mid bin"
>>> category_label("C(=C1/CCCN=C1c1cccnc1)/c1ccc(-n2ccnn2)cc1")
"mid bin"
>>> category_label("OCCN(CCO)c1ccc(/C=C2\\CCCN=C2c2cccnc2)cc1")
"high bin"
>>> category_label("COc1cccc(/C=C2\\CCCN=C2c2cccnc2)c1")
"low bin"

###

TARGET_ENTITY: Neuronal acetylcholine receptor; alpha4/beta2 (Rattus norvegicus, UniProt P09483+P12390)
Sequence (P09483 whole entry): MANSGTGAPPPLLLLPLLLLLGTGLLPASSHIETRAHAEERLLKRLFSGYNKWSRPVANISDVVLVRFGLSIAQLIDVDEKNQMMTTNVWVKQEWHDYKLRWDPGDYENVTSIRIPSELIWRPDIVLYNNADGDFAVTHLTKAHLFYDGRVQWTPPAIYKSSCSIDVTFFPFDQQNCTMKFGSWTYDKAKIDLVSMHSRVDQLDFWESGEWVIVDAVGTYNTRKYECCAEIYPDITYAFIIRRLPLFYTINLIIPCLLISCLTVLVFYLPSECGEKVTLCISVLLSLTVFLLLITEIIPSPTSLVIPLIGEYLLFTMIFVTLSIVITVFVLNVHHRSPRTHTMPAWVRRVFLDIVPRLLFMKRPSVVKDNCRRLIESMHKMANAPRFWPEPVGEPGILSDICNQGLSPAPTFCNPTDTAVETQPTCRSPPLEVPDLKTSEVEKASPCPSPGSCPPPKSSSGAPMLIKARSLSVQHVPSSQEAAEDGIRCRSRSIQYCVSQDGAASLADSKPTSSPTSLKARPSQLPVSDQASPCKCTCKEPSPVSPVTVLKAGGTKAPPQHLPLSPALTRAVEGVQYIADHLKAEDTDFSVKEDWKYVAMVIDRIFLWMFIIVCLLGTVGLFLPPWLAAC
Sequence (P12390 whole entry): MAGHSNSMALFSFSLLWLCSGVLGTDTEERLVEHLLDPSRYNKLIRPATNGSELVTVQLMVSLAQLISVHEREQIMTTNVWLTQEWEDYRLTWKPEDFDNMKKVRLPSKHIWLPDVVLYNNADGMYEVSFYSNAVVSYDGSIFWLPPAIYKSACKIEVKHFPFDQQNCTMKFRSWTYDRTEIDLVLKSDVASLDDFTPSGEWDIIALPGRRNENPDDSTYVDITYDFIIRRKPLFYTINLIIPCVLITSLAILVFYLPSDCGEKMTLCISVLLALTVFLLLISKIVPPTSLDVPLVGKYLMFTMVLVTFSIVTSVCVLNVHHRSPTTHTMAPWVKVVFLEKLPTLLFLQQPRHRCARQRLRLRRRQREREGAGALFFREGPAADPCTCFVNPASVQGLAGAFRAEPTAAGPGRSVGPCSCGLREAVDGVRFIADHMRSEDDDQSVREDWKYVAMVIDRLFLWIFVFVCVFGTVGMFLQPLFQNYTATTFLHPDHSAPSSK
EXPERIMENT_NOTES: Displacement of [3H]cytisine from alpha4beta2 nAChR in rat brain membrane after 3 hrs
pKi: −log10 of the molar value.
// label = 1.0 if pKi is not less than 6, otherwise 0.0

>>> category_label("CC(=O)Oc1ccc(/C=C2\\CCCN=C2c2cccnc2)cc1")
1.0
>>> category_label("CCN(CC)c1ccc(/C=C2\\CCCN=C2c2cccnc2)c(O)c1")
1.0
>>> category_label("CC(=O)Nc1ccc(/C=C2\\CCCN=C2c2cccnc2)cc1")
1.0
>>> category_label("COc1cc(OC)c(/C=C2\\CCCN=C2c2cccnc2)c(OC)c1")
1.0
>>> category_label("CCC(CC)Oc1cc(OC)ccc1/C=C1\\CCCN=C1c1cccnc1")
1.0
>>> category_label("CCCCOc1ccc(/C=C2\\CCCN=C2c2cccnc2)cc1")
0.0
>>> category_label("COc1ccc(/C=C2\\CCCN=C2c2cccnc2)c(O)c1")
1.0
>>> category_label("CC(C)(C)Oc1ccc(/C=C2\\CCCN=C2c2cccnc2)cc1")
0.0
>>> category_label("OCCN(CCO)c1ccc(/C=C2\\CCCN=C2c2cccnc2)cc1")
1.0
>>> category_label("C(=C1/CCCN=C1c1cccnc1)/c1ccc(N2CCOCC2)cc1")
1.0
>>> category_label("CC(=O)c1ccc(/C=C2\\CCCN=C2c2cccnc2)cc1")
0.0
>>> category_label("Oc1ccc(/C=C2\\CCCN=C2c2cccnc2)c(O)c1")
1.0
>>> category_label("COc1cc(/C=C2\\CCCN=C2c2cccnc2)cc(OC)c1OC")
0.0
>>> category_label("FC(F)(F)Oc1ccccc1/C=C1\\CCCN=C1c1cccnc1")
0.0
>>> category_label("COc1ccc(/C=C2\\CCCN=C2c2cccnc2)cc1")
1.0
>>> category_label("Cc1cc(/C=C2\\CCCN=C2c2cccnc2)cc(C)c1O")
1.0
>>> category_label("CNc1ccc(/C=C2\\CCCN=C2c2cccnc2)cc1")
1.0
>>> category_label("COc1ccc(/C=C2\\CCCN=C2c2cccnc2)c(OC(C)C)c1")
1.0
>>> category_label("CN(C)c1ccc(/C=C2\\CCCN=C2c2cccnc2)cc1")
1.0
>>> category_label("Nc1ccc(/C=C2\\CCCN=C2c2cccnc2)cc1")
1.0
>>> category_label("Oc1ccc(/C=C2\\CCCN=C2c2cccnc2)cc1")
1.0
>>> category_label("COc1ccc(/C=C2\\CCCN=C2c2cccnc2)c(OC)c1")
1.0
>>> category_label("Cc1cc(C)c(/C=C2\\CCCN=C2c2cccnc2)c(C)c1")
1.0

Ref: ChEMBL document CHEMBL1165900
